system: L. donovani; assay: In vivo visceral leishmaniasis BALB/c mouse model: liver and spleen parasite burden (LDUs); set-up: species or system BALB/c mice; conditions: 20 mg/kg; compared to untreated controls
Known Parasite Suppression (%)--Spleen (reduction in parasite burden) of a selection of compounds
Assay endpoint: Parasite Suppression (%)--Spleen (reduction in parasite burden)

Compound: CCCC(=O)N(C(=O)CCC)C1=C(Cl)C(=O)c2ccccc2C1=O
Reported result: 41.97%

Compound: C[C@@H]1[C@H](O)[C@@H](C)/C=C/C=C/C=C/C=C/C=C/C=C/C=C/[C@H](O[C@@H]2O[C@H](C)[C@@H](O)[C@H](N)[C@@H]2O)C[C@@H]2O[C@](O)(C[C@@H](O)C[C@@H](O)[C@H](O)CC[C@@H](O)C[C@@H](O)CC(=O)O[C@H]1C)C[C@H](O)[C@H]2C(=O)O [Am. B., Amphotericin B, reference compound]
Reported result: 35.74%

Compound: NC1=C(Br)C(=O)c2ccccc2C1=O
Reported result: 52.44%

Compound: O=C1C(Cl)=C(N(C(=O)c2cccc(Cl)c2)C(=O)c2cccc(Cl)c2)C(=O)c2ccccc21
Reported result: 0%
